Hey, just so you know, these numbers are from paper PMC2756588.

# tgt: T1, Hof1, Q05080
# T1 sequence (Q05080 590-669, looked up): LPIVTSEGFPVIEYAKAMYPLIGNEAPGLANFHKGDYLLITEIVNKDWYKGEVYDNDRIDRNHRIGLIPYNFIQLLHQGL
# assay-procedure: SPOT array
# experimental-setup: median of control spots 4086
measurement-type: SPOT intensity

Worked cases, answers included:
{"binder": "HPRFVSPRIPSRIVK", "SPOT intensity": 0}
{"binder": "PSTMDFPKLPSFQNS", "SPOT intensity": 307}
{"binder": "MARRRLPDRPPNGIG", "SPOT intensity": 130}

P: IAPIPMPKPNPTHIS
Q: APERAVPILPPRNNV
R: HHNRRKPLEVYFKAT
Problem: Please list these binders in decreasing order of SPOT intensity. I would appreciate it if you listed the labels in the requested order.
Result: Q, R, P

P: FSRRQSMDIPSKNRN
Q: KKAPPPVVKPKPRNF
Problem: Identify the entry with the larger SPOT intensity. Options: P and Q Output the label that corresponds to your choice.
Result: Q

I: VQKRKLPLPGSIASA
II: AATTSTPPLPRRRAT
Problem: Hello, I am sorting some records. Could you say if I or II has the smaller SPOT intensity value? Output the label that corresponds to your choice.
Result: I
(I: 0, II: 5)

I: TEVPIPRRPPPPQAA
II: PPLPRAPPVPPATFE
Problem: Identify the entry with the larger SPOT intensity. Options: I and II Output the label that corresponds to your choice.
Result: II

a: APKREAPKPPANTSP
b: SHRLWLYAAPKRPKT
Problem: Identify the entry with the larger SPOT intensity. Options: a and b Output the label that corresponds to your choice.
Result: b
(b: 5, a: 0)
